target: His tagged PTPN2 (TC45) protein (Homo sapiens); construct: made in house; assay: Mobility shift assay (MSA) to determine potency of PTPN2 inhibitors; assay type: biochemical; details: 0.5 nM enzyme, 2 μM substrate
pIC50: −log10 of the molar value.
Quick list: pIC50 per entry.

Here are 3 molecules together with their reported answers.
> print(dat)
                                   molecule  value.observed
1  COCCCCN1CCc2cc(O)c(N3CC(=O)NS3(=O)=O)c(F)c2C1    7.00 to 8.00
2  [2H]C([2H])([2H])C([2H])([2H])C([2H])([2H])C([2H])([2H])NC1CCc2cc(O)c(N3CC(=O)NS3(=O)=O)c(F)c2C1 (centres unmarked)    8.00 to 9.00
3  O=C1CN(c2c(O)cc3c(c2F)CN(CC2CC4(CC4)C2)CC3)S(=O)(=O)N1    7.00 to 8.00

Qu. Answer with the recorded pIC50 of `Cc1noc(C)c1CN1CCc2cc(O)c(N3CC(=O)NS3(=O)=O)c(F)c2C1` only.
Ans. 7.00 to 8.00

Qu. Answer with the recorded pIC50 of `O=C1CN(c2c(O)cc3c(c2F)CN(CCCC2CC2)CC3)S(=O)(=O)N1` only.
Ans. 7.00 to 8.00

###

Quick list: IC50 per entry.
Biological target: His tagged PTPN2 (TC45) protein (Homo sapiens, UniProt P17706)
Sequence (P17706 with tags, fused parts or gaps isoform P17706-2): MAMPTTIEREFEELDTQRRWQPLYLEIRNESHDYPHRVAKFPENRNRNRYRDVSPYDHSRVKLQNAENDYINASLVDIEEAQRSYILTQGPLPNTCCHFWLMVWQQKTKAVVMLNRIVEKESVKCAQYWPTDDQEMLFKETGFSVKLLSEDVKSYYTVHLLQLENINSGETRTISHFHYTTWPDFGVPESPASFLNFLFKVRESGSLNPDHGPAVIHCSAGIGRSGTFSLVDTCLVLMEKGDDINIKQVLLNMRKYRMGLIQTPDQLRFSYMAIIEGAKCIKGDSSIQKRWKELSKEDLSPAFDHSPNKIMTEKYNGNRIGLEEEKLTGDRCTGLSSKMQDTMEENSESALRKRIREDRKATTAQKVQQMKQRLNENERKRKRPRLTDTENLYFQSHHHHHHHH

> print(dat)
                                   compound  value.observed
1  N[C@H](CCC1CCCCC1)C(=O)N1CCc2cc(O)c(N3CC(=O)NS3(=O)=O)c(F)c2C1    10 to 100 nM
2  O=C1CN(c2c(O)cc3c(c2F)C[C@H](NCCC2CCC2)CC3)S(=O)(=O)N1          < 1 nM
3  NCCC1(CCN[C@@H]2CCc3cc(O)c(N4CC(=O)NS4(=O)=O)c(F)c3C2)CCC1          < 1 nM

Shifting focus to the compound that follows.
Qu. Answer with the recorded IC50 of CC(C)CCNCC1CCc2cc(O)c(N3CC(=O)NS3(=O)=O)c(F)c2C1 (stereo not shown) only.
Ans. 10 to 100 nM

###

Biological target: His tagged full-length PTPN1 protein (Homo sapiens)
Sequence (P18031 with tags, fused parts or gaps): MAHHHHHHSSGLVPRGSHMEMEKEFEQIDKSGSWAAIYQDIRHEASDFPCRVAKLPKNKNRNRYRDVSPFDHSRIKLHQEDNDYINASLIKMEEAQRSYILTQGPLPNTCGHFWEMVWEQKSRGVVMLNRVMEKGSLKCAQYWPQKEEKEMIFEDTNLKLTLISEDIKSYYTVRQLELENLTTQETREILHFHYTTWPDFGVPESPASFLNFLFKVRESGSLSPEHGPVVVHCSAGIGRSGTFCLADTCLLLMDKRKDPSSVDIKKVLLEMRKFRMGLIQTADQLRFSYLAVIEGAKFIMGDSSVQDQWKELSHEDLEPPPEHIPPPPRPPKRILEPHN
readout type: IC50

> print(dat)
                                   molecule  readout.type    value.observed
1  CCC(CC)CCN[C@@H]1CCc2cc(O)c(N3CC(=O)NS3(=O)=O)c(F)c2C1          IC50  0.001 to 0.01 µM
2  CC(C)CNC(=O)N1CCc2cc(O)c(N3CC(=O)NS3(=O)=O)c(F)c2C1          IC50    0.01 to 0.1 µM
3  CC(C)CCNC(=O)N1CCc2cc(O)c(N3CC(=O)NS3(=O)=O)c(F)c2C1          IC50    0.01 to 0.1 µM

Qu. Answer with the recorded IC50 of [2H]C1([2H])Cc2cc(O)c(N3CC(=O)NS3(=O)=O)c(F)c2C([2H])([2H])[C@@]1([2H])NCCC(C)C (single isomer, unassigned) only.
Ans. > 0.1 µM

Qu. Answer with the recorded IC50 of O=C1CN(c2c(O)cc3c(c2F)C[C@H](NCC2CCCCO2)CC3)S(=O)(=O)N1 (stereo partly shown) only.
Ans. 0.01 to 0.1 µM

Qu. Answer with the recorded IC50 of CC(C)CCN[C@@H]1CCc2cc(O)c(N3CC(=O)NS3(=O)=O)c(F)c2C1 (single isomer, unassigned) only.
Ans. 0.001 to 0.01 µM

Qu. Answer with the recorded IC50 of `CC(C)CCC[C@H]1Cc2c(cc(O)c(N3CC(=O)NS3(=O)=O)c2F)CN1` only.
Ans. 0.001 to 0.01 µM
